Experimental Target: T1, Cynomolgus monkey glycophorin A on Cynomolgus monkey red blood cells (Cynomolgus monkey)
T1 construct: whole, on cells; also called Cyno RBC; Cyno GPA
Run Description: FACS, Cyno RBC
Measurement Name: FACS signal

[
  {
    "Binder": "6C12B8/H8 (antibody, V domains shown, mouse IgG1/k from hybridoma; also called 6C12 parental; TPP-3422) VH: RVQLQQSGAELARPGASVKMSCKASGYTFTTYTIHWVKQKTGQGLEWIGYINPSSDYTRYNPKFKDKATLTTDKSSSTAYMKLNSLASDDSAVYYCQTGTRDYWGQGTTLTVSS VL: QIVLTQSPPIMSASPGEKVTMTCSAASSVSYIYWFQQKPGTSPKLWIYSTSTLPSGVPTRFSGSGSGTSYSLTISRMEAEDAATYYCHQRNSFPFTFGSGTKLEIR",
    "Measurement Name": "FACS signal",
    "Reported Result": "292 relative flourescence units"
  }
]
